# RUN_DESCRIPTION: GHS categories as the set defines them, by LD50: 1 up to 5, 2 up to 50, 3 up to 300, 4 up to 2000, 5 above 2000 mg/kg
# STATED_CONDITIONS: rat; in vivo; po
Each entry below carries its reported GHS category.

{"columns": ["COMPOUND", "GHS category"],
 "data": [
  ["CCOc1ccccc1NC(=O)C(=O)Nc1ccccc1CC", 5],
  ["O=C(CCCCC(=O)N(CCO)CCO)N(CCO)CCO", 5],
  ["CC(C)CCCC1CCC(C)(C(=O)O)CC1 (stereo not drawn)", 5],
  ["O=C(Cc1ccccc1)Cc1ccccc1", 5],
  ["Cc1ncc(CSSCc2cnc(C)c(O)c2CO)c(CO)c1O", 5],
  ["CCN(CCOC(C)OCC(C)C)c1ccc(N=Nc2ccccc2)cc1 (stereo not drawn)", 4],
  ["CCCc1nc2ccnn2c(Cl)c1Cc1ccc(-c2ccccc2-c2nn[nH]n2)cc1", 4],
  ["Cc1ccc(C(=O)c2cc(O)c(O)c([N+](=O)[O-])c2)cc1", 5],
  ["O=[N+]([O-])c1cccc(C=NOCc2cccc([N+](=O)[O-])c2)c1", 4],
  ["NS(=O)(=O)c1cc(C(=O)NN2C[C@H]3[C@H]4CCC(C4)[C@H]3C2)ccc1Cl", 5],
  ["O=c1nc2nc[nH]n2c(CO)c1Cc1ccc(-c2ccccc2-c2nn[nH]n2)cc1", 4],
  ["c1ccc(OCC2COC(Cn3cncn3)(c3cc4ccccc4o3)O2)cc1 (stereo not drawn)", 4],
  ["Cc1cc(O)c(C)c2c1OC(C)(CCCC(C)CCCC(C)CCCC(C)C)CC2 (racemic)", 5],
  ["CCc1c(Cc2ccc(-c3ccccc3-c3nn[nH]n3)cc2)c(=O)nc2nc[nH]n12", 4],
  ["O=C(CCl)N(c1ccccc1)c1c(Cl)cccc1Cl", 5],
  ["COc1ccccc1N=Nc1c(O)ccc2ccccc12", 5],
  ["O=S(=O)(O)c1ccc2c(ccc3nn(-c4ccc(C=Cc5ccc(-n6cncn6)cc5S(=O)(=O)O)c(S(=O)(=O)O)c4)nc32)c1", 5],
  ["CCOC(=O)[C@H](CCc1ccccc1)N[C@H]1CCCN2CCC[C@@H](C(=O)O)N2C1=O", 5],
  ["CCCCOC(=O)c1ccc(-n2nc(OC)c3ccccc32)cc1", 5],
  ["CCC(C)(CC)c1ccc(NC(=O)c2c(OC)cccc2OC)nn1", 4],
  ["CC(C)OC(=O)CCCCCCCCC(=O)OC(C)C", 5],
  ["c1ccc2sc(SN3CCOCC3)nc2c1", 5],
  ["O=C1CC(Nc2ccc([N+](=O)[O-])cc2)=NN1c1c(Cl)cc(Cl)cc1Cl", 5]
]}
